Target: PTBP1 (Homo sapiens, UniProt P26599 1-557)
Sequence (P26599 whole entry): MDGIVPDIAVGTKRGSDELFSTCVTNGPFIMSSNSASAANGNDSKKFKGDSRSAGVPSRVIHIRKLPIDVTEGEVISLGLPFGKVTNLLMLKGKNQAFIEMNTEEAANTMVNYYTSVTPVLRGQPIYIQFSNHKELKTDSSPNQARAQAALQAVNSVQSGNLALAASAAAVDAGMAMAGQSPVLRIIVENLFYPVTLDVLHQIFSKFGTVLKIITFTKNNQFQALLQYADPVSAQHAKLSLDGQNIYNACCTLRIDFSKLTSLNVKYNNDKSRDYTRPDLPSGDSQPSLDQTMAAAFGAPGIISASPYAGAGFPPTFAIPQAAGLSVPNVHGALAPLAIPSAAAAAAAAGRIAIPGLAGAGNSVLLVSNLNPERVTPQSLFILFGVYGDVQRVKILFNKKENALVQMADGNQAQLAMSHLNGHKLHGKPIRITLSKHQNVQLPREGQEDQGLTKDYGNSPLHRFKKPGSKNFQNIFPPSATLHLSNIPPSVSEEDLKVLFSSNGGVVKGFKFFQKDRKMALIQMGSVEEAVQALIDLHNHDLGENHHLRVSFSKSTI
Assay: EMSA; apparent Kd; tRNA competitor; EMSA, 10 uL: 6 uL DG buffer (20 mM Hepes-KOH pH 7.9, 20% glycerol, 80 mM K-glutamate, 0.2 mM EDTA, 0.2 mM PMSF), about 2.2 mM MgCl2, 0.05 mg/ml tRNA, RNaseOut
Settings: protein: recombinant; label: 32P (alpha-32P UTP, internal)
Readout name: Kd
Please make sure the unit comes right after the number.

For the binder probe 10 (ssRNA) RNA: GUGAGGGCUCUUUCUUCGUGGGACCGUAGAUAGGUAGCUGCUGCUGGUCUCACACUGUUCUCCCUACAG , what Kd is on record? 73 nM
